Values were extracted from patent US20220380445A1.

biological target: guinea pig serum albumin (guinea pig); experiment: ProteOn kinetic analysis
parameterMeasured: koff (s⁻¹)
Quick note: give the figure in s⁻¹, leave out the unit.

Observe how each entry below is paired with its result.
binder="SEQ ID NO 127 (VHH, also called T at position 30) VHH: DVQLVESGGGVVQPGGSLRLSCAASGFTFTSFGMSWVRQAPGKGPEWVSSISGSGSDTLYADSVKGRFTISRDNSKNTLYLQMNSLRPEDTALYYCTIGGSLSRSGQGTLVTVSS" parametermeasured=koff reported=0.0075
binder="SEQ ID NO 129 (VHH, also called T at position 30) VHH: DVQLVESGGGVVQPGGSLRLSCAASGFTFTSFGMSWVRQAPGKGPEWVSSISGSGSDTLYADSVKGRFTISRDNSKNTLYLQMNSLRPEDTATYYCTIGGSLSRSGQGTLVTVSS" parametermeasured=koff reported=0.0098
binder="SEQ ID NO 145 (VHH, also called T at position 30) VHH: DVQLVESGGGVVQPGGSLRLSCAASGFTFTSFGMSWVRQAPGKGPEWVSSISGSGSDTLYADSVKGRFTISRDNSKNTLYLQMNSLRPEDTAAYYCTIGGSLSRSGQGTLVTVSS" parametermeasured=koff reported=0.01

[in] Please report the recorded koff for SEQ ID NO 10 (VHH, also called R at position 30) VHH: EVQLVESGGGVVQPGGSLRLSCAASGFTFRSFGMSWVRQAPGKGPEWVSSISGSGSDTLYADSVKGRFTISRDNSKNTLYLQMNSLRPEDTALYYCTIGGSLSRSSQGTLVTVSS .
[out] 0.0063
